For each entry below, report its self-splicing fitness (ln) value.
procedure-summary: self-splicing fitness, log relative to wild type (ln ratio); higher = more splicing; Tetrahymena group I intron in knt gene, E. coli kanamycin selection, DiMSum; sequences stand for … in CUCUCU…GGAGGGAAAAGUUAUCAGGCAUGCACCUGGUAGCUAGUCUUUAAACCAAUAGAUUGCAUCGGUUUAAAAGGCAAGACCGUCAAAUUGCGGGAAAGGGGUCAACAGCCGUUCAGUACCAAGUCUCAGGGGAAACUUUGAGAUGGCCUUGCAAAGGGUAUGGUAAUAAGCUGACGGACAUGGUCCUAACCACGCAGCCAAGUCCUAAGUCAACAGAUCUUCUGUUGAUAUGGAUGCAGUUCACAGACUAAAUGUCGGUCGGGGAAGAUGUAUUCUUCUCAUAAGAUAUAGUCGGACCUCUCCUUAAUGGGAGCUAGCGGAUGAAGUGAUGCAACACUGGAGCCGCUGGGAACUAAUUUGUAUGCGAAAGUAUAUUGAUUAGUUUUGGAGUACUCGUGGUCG;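 further: selection with 25 µg/mL kanamycin versus none on LB agar overnight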
measurement-parameters: 30 °C
One number for each entry.

Completed entries (count: 3):
query-sequence: AUCAAGCAAUAUUACGGGUU
self-splicing fitness (ln): -3.44

query-sequence: CCCAAGCAAUAUUACGCGGA
self-splicing fitness (ln): -1.6

query-sequence: UCAGAGCAAUAUUACGUCUU
self-splicing fitness (ln): -3.53

Could you report self-splicing fitness (ln) for every entry in the following list?
1. ACCCAGCAAUAUUACGAUCC
2. GCGAAGCAAUAUUACGUGGU

Solution:
-1.96
-3.09

Could you report self-splicing fitness (ln) for every entry in the following list?
1. UACAAGCAAUAUUACGAUAA
2. AUGAAGCAAUAUUACGGUGC

Solution:
-1.93
-2.3

Could you report self-splicing fitness (ln) for every entry in the following list?
1. GCAUAGCAAUAUUACGAACC
2. GUAUAGCAAUAUUACGGCAG
3. UAAGAGCAAUAUUACGACUU

Solution:
-1.45
-4.25
-2.79

Could you report self-splicing fitness (ln) for every entry in the following list?
1. AUGAAGCAAUAUUACGAUUC
2. CCACAGCAAUAUUACGUGGA
3. GUUCAGCAAUAUUACGUGCG
4. GGGUAGCAAUAUUACGCCGU
5. CAGAAGCAAUAUUACGUGAC
6. GCGUAGCAAUAUUACGUCGU

Solution:
-2.23
-3.7
-1.45
-0.463
-3
-2.13

Could you report self-splicing fitness (ln) for every entry in the following list?
1. UCUGAGCAAUAUUACGAGCU
2. AGAUAGCAAUAUUACGGAGU

Solution:
-2.99
-3.25

Could you report self-splicing fitness (ln) for every entry in the following list?
1. GCCAAGCAAUAUUACGUUCC
2. CGCAAGCAAUAUUACGUCGG
3. UAUAAGCAAUAUUACGCGGC
4. GUAUAGCAAUAUUACGUCUG
5. UUCAAGCAAUAUUACGAAGU
6. CAUAAGCAAUAUUACGGGUU
7. CAGGAGCAAUAUUACGAUCG
8. CUAGAGCAAUAUUACGAAGA

Solution:
[-0.712, -0.371, -3.53, -3.17, -3.76, -3.37, -0.865, -3.61]

Could you report self-splicing fitness (ln) for every entry in the following list?
1. UAUUAGCAAUAUUACGUAGU
2. CAGAAGCAAUAUUACGAACU
3. GGUUAGCAAUAUUACGCUAU
4. CUUCAGCAAUAUUACGCGCA
5. GGGAAGCAAUAUUACGGUCA
6. GCCGAGCAAUAUUACGGCGG

Solution:
[-2.56, -2.12, -4.15, -1.93, -0.346, -2.62]

Could you report self-splicing fitness (ln) for every entry in the following list?
1. AUACAGCAAUAUUACGGGAG
2. UUACAGCAAUAUUACGCGUA
3. ACAUAGCAAUAUUACGGUGC
4. GCUAAGCAAUAUUACGAGGG
5. UCCCAGCAAUAUUACGCAAG
6. GGACAGCAAUAUUACGGCUA
7. UCCUAGCAAUAUUACGCAAC

Solution:
[-3.35, -3.07, -3.84, -2.18, -3.45, -0.452, -2.76]
